Origin of measurements: paper PMC10515491

# measured.target: T1, D. rerio NCBD (nuclear coactivator binding domain of CBP), Trp variant (D. rerio)
# T1 chain: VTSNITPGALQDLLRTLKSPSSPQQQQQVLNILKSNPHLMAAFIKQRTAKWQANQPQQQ

{"columns": ["binder", "Kd"],
 "data": [
  ["D. rerio NCOA1 N-CID-C (CID with N- and C-terminal flanking regions) (domain or fragment) GSEPMTFDNSLANQTQAPLSSPQEQCVPCPLDEMLCPPTTPEGRNDEKALLEQLVTFLSHTDESELAELDRALGIDKIVQSGCLEPVTQTPFPQSQPPTPVPLDPKLPSYPSQFPTSPSQFP", "15 nM"],
  ["D. rerio NCOA2 N-CID-C (CID with N- and C-terminal flanking regions) (domain or fragment) GPGSPPNQTAPWPDSVMPIEPVPFGNQSSSMYGGSQEDVLCPPASEGPADEGALLSQLYSALKDFDGLEEIDRALGIPALVGQAQPVEQDQFPGQDPSMMMDQKPPMYGQQQYASSPANMQQAG", "82 nM"],
  ["GPGSASEGPADEGALLSQLYSALKDFDGLEEIDRALGIPALVGQAQ (domain or fragment) [D. rerio NCOA2 CID (minimal region)]", "150 nM"],
  ["GSEGRNDEKALLEQLVTFLSHTDESELAELDRALGIDKIVQSGC (domain or fragment) [D. rerio NCOA1 CID (minimal region)]", "44 nM"],
  ["D. rerio NCOA3 N-CID-C (CID with N- and C-terminal flanking regions) (domain or fragment) GSPPQSPSWPDSGMGMEGPPSANRLPINSPLDELLAPPSTSEGQSDERALLDQLDSLLNNTDVIALEEIDRALGIPDLINQGHSSDQPPPSDPFSGPCLGPDSSMGMEPPKAMYGQGYPGPP", "170 nM"],
  ["GSEGQSDERALLDQLDSLLNNTDVIALEEIDRALGIPDLINQGH (domain or fragment) [D. rerio NCOA3 CID (minimal region)]", "300 nM"]
]}
